The values you see were collected from ChEMBL document CHEMBL3751789.

Reported Activity values for a set of compounds
test: Antioxidant activity assessed as peroxide reduction rate at 80 uM using H2O2/pyrocatechol as substrate/hydrogen-donar
Assay type: physicochemical
Please state the figure in µM/min; there is no need to write the unit.

Worked examples, 3 compounds total:
C=CCN1C(=O)/C(=C/c2ccccn2)NC1=S: 0
O=C1/C(=C/c2ccccn2)NC(=[Se])N1C1CCCCC1: 0
CCOC(=O)CNC(=[Se])NC1CCCCC1: 1.3

Using the record for C=CCN1C(=O)/C(=C/c2ccccn2)NC1=[Se] , report its Activity. 0

Same read-out for C=CCN1C(=O)/C(=C/c2ccccn2)N=C1[Se]C ? 0

====

test: Antioxidant activity assessed as peroxide reduction rate at 80 uM using H2O2/4-aminoantipyrine as substrate/hydrogen-donar
Type: physicochemical
property: Activity

Quick one: Activity of C=CCN1C(=O)/C(=C/c2ccccn2)NC1=S ? 0 µM/min

Try this compound next: O=C1/C(=C/c2ccccn2)NC(=[Se])N1C1CCCCC1 3 µM/min

Try the compound C=CCN1C(=O)/C(=C/c2ccccn2)N=C1[Se]C 0 µM/min

Another compound to check: C=CCN1C(=O)/C(=C/c2ccccn2)NC1=[Se] 0 µM/min

How about CCOC(=O)CNC(=[Se])NC1CCCCC1 ? 0 µM/min

====

Test system: HepG2
test: Cytotoxicity against human HepG2 cells after 48 hrs by MTT assay
Format: functional
experimental_setup: HepG2, 48 h
property: CC50 (µM)
Reply with just the number (in µM).

Here's what some known entries look like.
C=CCN1C(=O)/C(=C/c2ccccn2)N=C1[Se]C: 6.62
C=CCN1C(=O)/C(=C/c2ccccn2)N=C1SC: 56.7
C=CCN1C(=O)CNC1=S: 40.7

Look up CC50: C=CCN1C(=O)/C(=C/c2ccccn2)NC1=[Se] 29.8

Quick one: C=CCN1C(=O)CNC1=[Se] 16.4

====

test: Cytotoxicity against HEK293 cells after 48 hrs by MTT assay
Type: cell-based
experimental_setup: human, HEK293 cells
As shown below, each of these molecules has a reported CC50 at 48 h value.
Value expressed in µM; do not type the unit.

C=CCN1C(=O)CNC1=[Se]: 10.3
C=CCN1C(=O)CNC1=S: 58.2
C=CCN1C(=O)/C(=C/c2ccccn2)NC1=[Se]: 42.6

Could you now consider this next molecule?
Which CC50 at 48 h is reported for this molecule? C=CCN1C(=O)/C(=C/c2ccccn2)N=C1[Se]C 12.6

====

test: Antioxidant activity assessed as peroxide reduction rate at 80 uM using H2O2/GSH as substrate/hydrogen-donar by GPx-based assay
Type: physicochemical
Each entry below carries its recorded Activity.
Numeric answer only, unit µM/min assumed.

# annotated cases, reported Activity shown
C=CCN1C(=O)/C(=C/c2ccccn2)NC1=[Se]: 79
CCOC(=O)CNC(=[Se])NC1CCCCC1: 82
C=CCN1C(=O)/C(=C/c2ccccn2)N=C1[Se]C: 0
C=CCN1C(=O)/C(=C/c2ccccn2)NC1=S: 0

// Activity lookup, key: O=C1/C(=C/c2ccccn2)NC(=[Se])N1C1CCCCC1 138

Next up: O=c1c2ccccc2[se]n1-c1ccccc1 140
